- MEASURED_ON: SARS-CoV-2 nsp3-mac1 (Severe acute respiratory syndrome coronavirus 2, UniProt P0DTD1)
- TEST_PROTOCOL: biochemical
- Assay type: biochemical
- SETUP_CONDITIONS: SARS-CoV-2 nsp3 macrodomain TR-FRET single point, concentration 50.0 uM
Answer each item with its documented perc_inhibition_mean.
Answers are plain numbers, in %.

| ENTRY_SMILES | UNIT_TEXT | perc_inhibition_mean |
| --- | --- | --- |
| c1ccc2sc(CNc3ncnc4[nH]ccc34)nc2c1 | % | -0.671 |
| Cc1cc(C(F)(F)F)nn1CCNc1ncnc2[nH]ccc12 | % | 4.602 |
| c1ccc(-c2n[nH]cc2CNc2cnc3[nH]ncc3c2)cc1 | % | -2.044 |
| CCCNC(=O)[C@H]1CCCN(c2ncnc3[nH]ccc23)C1 | % | -4.36 |
| Cc1ncc(NCc2ncn(C)c2Cl)cc1C(N)=O | % | 2.409 |

Look at each compound and report its perc_inhibition_mean.
1. O[C@@]1(C(F)(F)F)CCCN(c2ncnc3n[nH]cc23)CC1
2. CC(C)OCCNC(=O)c1cc2c(=O)n3ccccc3nc2n1C
3. CC(C)n1ncnc1CNc1cc2c(=O)nc[nH]c2cn1
4. Cn1nc(NC(=O)c2cc3nccn3c(=O)[nH]2)c2nccnc21
5. O=C(OCC(Br)=C1CCOCC1)c1ncnc2[nH]ccc12

1. -4.139
2. 14.037
3. -1.486
4. -1.913
5. -5.359

* * *

Answer each item with its documented pIC50.
- Test system: CYP
- TEST_PROTOCOL: CYP inhibition
- Format: in vitro ADME
- SETUP_CONDITIONS: isoform 2C19; In vitro CYP inhibition pooled
pIC50: −log10 of the molar value.

Look at each compound and report its pIC50.
1. COc1ccc([C@H](Cc2nnn[nH]2)NC(=O)c2ncnc3[nH]ccc23)cc1 [ASAP-0015381]
2. C[C@H](C(=O)O)[C@@H](NC(=O)c1ncnc2[nH]ccc12)c1ccc(Br)cc1 [ASAP-0014722]
3. Cn1ncc(-c2cc3c(N[C@@H](c4ccc5c(n4)OCCO5)C(C)(C)C)ncnc3[nH]2)c1C#N [ASAP-0011221]

< 4.30
< 4.30
< 4.30

* * *

- TEST_PROTOCOL: In vitro dog liver microsomal stability
- Format: in vitro ADME
Answer each item with its documented t_half.

| COMPOUND | t_half |
| --- | --- |
| C[C@H](C(=O)O)[C@@H](NC(=O)c1ncnc2[nH]ccc12)c1ccc(Br)cc1 | > 139.0 min |

Look at each compound and report its t_half.
1. COc1ccc([C@H](Cc2nnn[nH]2)NC(=O)c2ncnc3[nH]ccc23)cc1
2. CC(C)C(Nc1ncnc2[nH]c(C(=O)NC3CCN(C)C3)cc12)c1ccc2c(c1)S(=O)(=O)CCC2 (stereo not drawn)

1: > 139.0 min; 2: > 139.0 min

* * *

- TEST_PROTOCOL: Hepatic microsomal stability, HLM
- Type: in vitro ADME, human
- SETUP_CONDITIONS: In vitro human liver microsomal stability
Assign labels as follows, please: condition met for perc_remaining below 20%; condition not met for perc_remaining equal to or exceeding 20%.

| COMPOUND | CLASSIFICATION |
| --- | --- |
| CC(C)[C@@H](Nc1ncnc2[nH]c(-c3cnn(C)c3C#N)cc12)c1ccc2c(n1)NC(=O)CO2 [ASAP-0008644] | condition not met |
| CC(C)[C@@H](Nc1ncnc2[nH]c(-c3cnn(CC(N)=O)c3)cc12)c1ccc2c(n1)OCCO2 (single isomer, unassigned) [ASAP-0012315] | condition not met |
| CC(C)[C@@H](Nc1ncnc2[nH]c(C(=O)N[C@H]3CCN(C)C3)cc12)c1ccc2c(c1)S(=O)(=O)CCC2 (single isomer, unassigned) [ASAP-0012336] | condition not met |
| CC(C)[C@H](Nc1ncnc2[nH]c(-c3cnn(C)c3C#N)cc12)c1ccc2c(n1)OCCO2 [ASAP-0010715] | condition not met |
| CNC(=O)c1cc2c(N[C@@H](c3ccc4c(c3)S(=O)(=O)CCC4)C(C)C)ncnc2[nH]1 [ASAP-0008685] | condition not met |

Next, consider the following compound.
Could you please tell me whether perc_remaining recorded for CCNC(=O)c1cc2c(NC(c3ccc4c(c3)OCCO4)C(C)C)ncnc2[nH]1 (stereo not shown) [ASAP-0008444] is less than 20%?
condition not met

* * *

- TEST_PROTOCOL: Permeability Papp (AB) MDR1/MDCKII
- SETUP_CONDITIONS: In vitro MDR1-MDCKII permeability, A to B, mean
ASSAY_METRIC: papp_a_to_b_mean
Units required after the number.

Consider the following illustrative entries.
| MOLECULE | papp_a_to_b_mean |
| --- | --- |
| CCNC(=O)c1cc2c(N[C@H](c3ccc4c(c3)S(=O)(=O)CCC4)C(C)C)ncnc2[nH]1 (racemic) | 0.7 ×10⁻⁶ cm/s |
| CC(C)[C@H](Nc1ncnc2[nH]c(-c3cnn(CC(N)=O)c3)cc12)c1ccc2c(c1)S(=O)(=O)CCC2 (single isomer, unassigned) [ASAP-0011428] | 1.98 ×10⁻⁶ cm/s |
| CC(C)[C@@H](Nc1ncnc2[nH]c(-c3cnn(C)c3C#N)cc12)c1ccc2c(c1)S(=O)(=O)CCC2 (single isomer, unassigned) [ASAP-0011147] | 1.82 ×10⁻⁶ cm/s |
| CC(C)[C@H](Nc1ncnc2[nH]ccc12)c1ccc2c(c1)S(=O)(=O)CCC2 | 5.5 ×10⁻⁶ cm/s |

Look at each molecule and report its papp_a_to_b_mean.
1. CC(C)(C)[C@@H](Nc1ncnc2[nH]c(-c3cnn(CC(N)=O)c3)cc12)c1ccc2c(n1)OCCO2
2. Cc1nn(C)cc1-c1cc2c(NC(c3ccc4c(c3)S(=O)(=O)CCC4)C(C)C)ncnc2[nH]1 (stereo not shown)

1: 1.53 ×10⁻⁶ cm/s; 2: 4.36 ×10⁻⁶ cm/s

* * *

Answer each item with its documented clint.
- TEST_PROTOCOL: Hepatic microsomal stability, HLM
- Format: in vitro ADME, human
- SETUP_CONDITIONS: In vitro human liver microsomal stability
Give bare numbers, in µL/min/mg.

Consider the following illustrative entries.
| COMPOUND | EXPERIMENTAL_VALUE |
| --- | --- |
| CC(C)[C@H](Nc1ncnc2[nH]ccc12)c1ccc2c(c1)NC(=O)CO2 [ASAP-0008430] | 10.0 |
| CC(C)(C)[C@H](Nc1ncnc2[nH]c(-c3cnn(CC(N)=O)c3)cc12)c1ccc2c(n1)OCCO2 (racemic) [ASAP-0008648] | 36.0 |

Look at each compound and report its clint.
1. CC(C)[C@H](Nc1ncnc2[nH]c(-c3cnn(CC(N)=O)c3)cc12)c1ccc2c(c1)OCCO2 (single isomer, unassigned) [ASAP-0008450]
2. CNC(=O)c1cc2c(N[C@@H](c3ccc4c(c3)NC(=O)CO4)C(C)C)ncnc2[nH]1 [ASAP-0011219]

238.0
175.0

* * *

Answer each item with its documented perc_inhibition_mean.
- MEASURED_ON: SARS-CoV-2 nsp3-mac1 (Severe acute respiratory syndrome coronavirus 2)
- TEST_PROTOCOL: biochemical
- Assay type: biochemical
- SETUP_CONDITIONS: SARS-CoV-2 nsp3 macrodomain TR-FRET single point; concentration 99.5 uM; n=2
One number for each entry, in %.

Consider the following illustrative entries.
| COMPOUND | MEASURED_ON | ASSAY_METRIC | EXPERIMENTAL_VALUE |
| --- | --- | --- | --- |
| Cc1n[nH]c(C)c1C(=O)N1CCC(c2ccn3ncc(C(=O)N4CCCCC4)c3c2)CC1 [ASAP-0000330] | SARS-CoV-2 nsp3-mac1 (Severe acute respiratory syndrome coronavirus 2) | perc_inhibition_mean | 23.296 |
| O=C(CCN(Cc1cccc(Cl)c1)C(=O)C1(O)CCCC1)N1CCNCC1 [ASAP-0000326] | SARS-CoV-2 nsp3-mac1 (Severe acute respiratory syndrome coronavirus 2) | perc_inhibition_mean | -1.781 |
| Nc1ncnc2c1ncn2Cc1cccc2ncnn12 [ASAP-0000294] | SARS-CoV-2 nsp3-mac1 (Severe acute respiratory syndrome coronavirus 2) | perc_inhibition_mean | -3.161 |
| CCn1cc(CNC(=O)c2ccc(NC(=O)Nc3ccccc3)cc2)cn1 [ASAP-0000320] | SARS-CoV-2 nsp3-mac1 (Severe acute respiratory syndrome coronavirus 2) | perc_inhibition_mean | 3.797 |
| O=C(CCN(Cc1cccc(Cl)c1)C(=O)c1ccccc1F)N1CCNCC1 [ASAP-0000311] | SARS-CoV-2 nsp3-mac1 (Severe acute respiratory syndrome coronavirus 2) | perc_inhibition_mean | 0.395 |

Look at each compound and report its perc_inhibition_mean.
1. O=C(Nc1ccccc1)Nc1ccc(C(=O)Nc2cnnc(Cl)c2)cc1 [ASAP-0000342]
2. CN(Cc1cn(C)nn1)C(=O)c1cnn2ccc(C3CCN(C(=O)c4ccccc4)CC3)cc12 [ASAP-0000277]
3. Cc1ncc(NCc2csc(-c3ccccn3)n2)cn1 [ASAP-0000278]

1. -0.19
2. 1.337
3. -4.487
